details: PAMPA
Where a SMILES comes first, the peptide text is derived from it. [ ]: non-standard residue; d: D form. dNMeF = CN[C@H](Cc1ccccc1)C(=O)O; NMeL = CN[C@@H](CC(C)C)C(=O)O; NMeA = CN[C@@H](C)C(=O)O; Nle = CCCC[C@H](N)C(=O)O; dNMeA = CN[C@H](C)C(=O)O
Below, each of the compounds is paired with its reported PAMPA_R3 value.

compound: CCCC[C@@H]1NC(=O)[C@H]2CCCN2C(=O)[C@@H]2CCCN2C(=O)[C@@H](C)NC(=O)[C@H]2CCCN2C(=O)[C@@H](C(C)C)NC(=O)[C@H](C(C)C)NC(=O)[C@@H](Cc2ccccc2)N(C)C(=O)[C@H](C)N(C)C1=O [Design D9.31] (cyclo([NMeA][dNMeF]V[dV][dP][dA]P[dP][Nle]))
PAMPA_R3: 5.29E-08
--
compound: CC[C@@H](C)[C@H]1NC(=O)[C@@H]2CCCN2C(=O)[C@@H]([C@H](C)CC)NC(=O)[C@@H](C)N(C)C(=O)[C@H](CC(C)C)NC(=O)[C@@H](Cc2ccccc2)NC(=O)[C@H](CC(C)C)N(C)C(=O)[C@H]2CCCN2C(=O)[C@@H](CC(C)C)NC(=O)[C@H](CC(C)C)NC(=O)[C@H]2CCCN2C1=O [Design D11.1] (cyclo(L[dL][dP][NMeL][dF]L[dNMeA][dI]P[dI][dP]))
PAMPA_R3: 3.63E-06

###

experiment: Pharmacokinetics and oral bioavailability of D11.2 in male SD rats (IV, PO, SQ); assay type: in vivo; conditions: male, Sprague Dawley, rat, plasma, sc, 1 mg/kg, SQ 1 mg/kg, Mean; read-out: Tmax
Where a SMILES comes first, the peptide text is derived from it. [ ]: non-standard residue; d: D form. NMeL = CN[C@@H](CC(C)C)C(=O)O; Sar = CNCC(=O)O
assay-endpoint: Tmax (h)

compound: CC[C@@H](C)[C@H]1NC(=O)[C@@H]2CCCN2C(=O)[C@@H]([C@H](C)CC)NC(=O)CN(C)C(=O)[C@H](CC(C)C)NC(=O)[C@@H](Cc2ccccc2)NC(=O)[C@H](CC(C)C)N(C)C(=O)[C@H]2CCCN2C(=O)[C@@H](CC(C)C)NC(=O)[C@H](CC(C)C)NC(=O)[C@H]2CCCN2C1=O [Design D11.2] (cyclo(L[Sar][dI]P[dI][dP]L[dL][dP][NMeL][dF]))
assay-endpoint: Tmax
readout-units: h
data-value: 4

###

conditions: PAMPA
Where a SMILES comes first, the peptide text is derived from it. [ ]: non-standard residue; d: D form. NMeL = CN[C@@H](CC(C)C)C(=O)O; dNMeL = CN[C@H](CC(C)C)C(=O)O; NMeM = CN[C@@H](CCSC)C(=O)O; NMeA = CN[C@@H](C)C(=O)O; Nle = CCCC[C@H](N)C(=O)O; dNMeA = CN[C@H](C)C(=O)O

compound: CC(C)C[C@@H]1NC(=O)[C@@H](CC(C)C)N(C)C(=O)[C@@H]2CCCN2C(=O)[C@H](CC(C)C)N(C)C(=O)[C@@H](C)NC(=O)[C@@H](CC(C)C)N(C)C(=O)[C@@H]2CCCN2C(=O)[C@@H](CC(C)C)N(C)C(=O)[C@H](CC(C)C)N(C)C(=O)[C@H](Cc2ccccc2)NC1=O [Design D10.21] (cyclo(F[NMeL][dNMeL]P[dNMeL][dA][NMeL]P[dNMeL]L))
PAMPA_R1: BQL

compound: CC[C@H](C)[C@@H]1NC(=O)[C@H](CCSC)N(C)C(=O)[C@H]2CCCN2C(=O)[C@H](CC(C)C)NC(=O)[C@@H](Cc2ccccc2)NC(=O)[C@@H]2CCCN2C(=O)[C@H]2CCCN2C(=O)[C@H]([C@@H](C)CC)NC(=O)[C@@H](CC(C)C)N(C)C(=O)[C@H](CC(C)C)N(C)C1=O [Design D10.36] (cyclo([dF]L[dP][NMeM]I[NMeL][dNMeL]I[dP]P))
PAMPA_R1: BQL

compound: CC(C)C[C@@H]1C(=O)N[C@H](C)C(=O)N(C)[C@H](CC(C)C)C(=O)N2CCC[C@@H]2C(=O)N[C@H](CC(C)C)C(=O)N[C@@H](C)C(=O)N[C@H](CC(C)C)C(=O)N2CCC[C@@H]2C(=O)N1C [Design D8.25, DLEU DPRO *DLEU DALA *DLEU DPRO DLEU ALA] (cyclo(A[dL][dP][dNMeL][dA][dNMeL][dP][dL]))
PAMPA_R1: 7.42E-07

compound: CC[C@H](C)[C@@H]1NC(=O)[C@@H]2CCCN2C(=O)[C@H]2CCCN2C(=O)[C@@H](CC(C)C)NC(=O)[C@@H](CC(C)C)N(C)C(=O)[C@@H](C(C)C)NC(=O)[C@H](C(C)C)NC(=O)[C@H]2CCCN2C(=O)[C@@H]2CCCN2C(=O)[C@H]([C@@H](C)CC)NC(=O)[C@H](C)N(C)C1=O [Design D11.13] (cyclo(I[NMeA]IP[dP]V[dV][dNMeL][dL][dP]P))
PAMPA_R1: 9.91E-07

compound: CC(C)C[C@@H]1NC(=O)[C@@H](C)N(C)C(=O)[C@@H](CC(C)C)N(C)C(=O)[C@@H]2CCCN2C(=O)[C@H]2CCCN2C(=O)[C@@H](C)NC(=O)[C@@H]2CCCN2C(=O)[C@H]2CCCN2C(=O)[C@@H](CC(C)C)NC1=O [Design D9.27] (cyclo([dA][dP]P[dNMeL][dNMeA]L[dL][dP]P))
PAMPA_R1: 3.26E-08

compound: CCCC[C@@H]1NC(=O)[C@H](C(C)C)NC(=O)[C@H]2CCCN2C(=O)[C@@H]2CCCN2C(=O)[C@H](C)NC(=O)[C@@H](C)N(C)C(=O)[C@@H](CC(C)C)N(C)C(=O)[C@@H](C(C)C)NC(=O)[C@@H]2CCCN2C1=O [Design D9.21] (cyclo(AP[dP]V[Nle]P[dV][dNMeL][dNMeA]))
PAMPA_R1: 2.78E-07

###

assay: Pharmacokinetics and oral bioavailability of D8.3.p1 and D10.1 in Balb/C female mice (PO, SQ, IV); format: in vivo; conditions: female, Balb/C, mouse, plasma, po, 12.2 mg/kg; read-out: Oral bioavailability F
assay-endpoint: bioavailability (%)

molecule: CC[C@H](C)[C@@H]1NC(=O)[C@@H](CC(C)C)NC(=O)[C@H](CC(C)C)N(C)C(=O)[C@H](Cc2ccccc2)NC(=O)CN(C)C(=O)[C@@H]2CCCN2C(=O)[C@H](C(C)C)NC(=O)[C@H](Cc2ccccc2)N(C)C(=O)[C@H]2CCCN2C(=O)[C@H](CC(C)C)NC1=O
data-value: 7.48

###

conditions: PAMPA
Where a SMILES comes first, the peptide text is derived from it. [ ]: non-standard residue; d: D form. dNMeF = CN[C@H](Cc1ccccc1)C(=O)O; NMeL = CN[C@@H](CC(C)C)C(=O)O; dNMeL = CN[C@H](CC(C)C)C(=O)O; dNMeV = CN[C@@H](C(=O)O)C(C)C; dNMeA = CN[C@H](C)C(=O)O

compound: CC[C@@H](C)[C@H]1NC(=O)[C@H](CC(C)C)N(C)C(=O)[C@H]2CCCN2C(=O)[C@H](CC(C)C)NC(=O)[C@@H](Cc2ccccc2)N(C)C(=O)[C@H](CC(C)C)N(C)C(=O)[C@@H](C(C)C)NC(=O)[C@H](C)NC(=O)[C@H]2CCCN2C(=O)[C@@H]2CCCN2C1=O (single isomer, unassigned) [Design D10.60.p2]
PAMPA_Papp_Avg: 1.17E-06
--
compound: CC(C)C[C@@H]1NC(=O)[C@@H](C(C)C)NC(=O)[C@H](CC(C)C)N(C)C(=O)[C@H]2CCCN2C(=O)[C@@H](C(C)C)NC(=O)[C@H]2CCCN2C(=O)[C@@H](C(C)C)NC(=O)[C@@H](Cc2ccccc2)N(C)C(=O)[C@H](CC(C)C)N(C)C1=O (single isomer, unassigned) [Design D9.8.p1]
PAMPA_Papp_Avg: 5.72E-06
--
compound: CC(C)C[C@@H]1C(=O)N[C@H](CC(C)C)C(=O)N(C)[C@H](Cc2ccccc2)C(=O)N(C)[C@@H](CC(C)C)C(=O)N(C)[C@H](C)C(=O)N2CCC[C@H]2C(=O)N(C)[C@H](Cc2ccccc2)C(=O)N[C@@H](C(C)C)C(=O)N[C@H](CC(C)C)C(=O)N2CCC[C@H]2C(=O)N1C [Design D10.14] (cyclo([NMeL][dNMeA]P[dNMeF]V[dL]P[dNMeL][dL][dNMeF]))
PAMPA_Papp_Avg: BQL
--
compound: CC[C@H](C)[C@@H]1NC(=O)[C@@H](CC(C)C)NC(=O)[C@H]2CCCN2C(=O)[C@@H]2CCCN2C(=O)[C@H](C)NC(=O)[C@H]2CCCN2C(=O)[C@@H]2CCCN2C(=O)[C@H](C)NC(=O)[C@@H](C(C)C)N(C)C1=O [Design D9.37, DPRO DLEU ILE *DVAL ALA PRO DPRO ALA PRO] (cyclo(AP[dP]AP[dP][dL]I[dNMeV]))
PAMPA_Papp_Avg: BQL
--
compound: CC[C@@H](C)[C@H]1NC(=O)[C@@H](CC(C)C)N(C)C(=O)[C@@H](CC(C)C)N(C)C(=O)[C@H](CC(C)C)NC(=O)[C@@H](CC(C)C)N(C)C(=O)[C@H](Cc2ccccc2)NC(=O)[C@H](CC(C)C)NC(=O)[C@@H]2CCCN2C(=O)[C@H]2CCCN2C(=O)[C@@H]2CCCN2C(=O)[C@H](CC(C)C)NC1=O [Design D11.22] (cyclo(LF[dNMeL]L[dNMeL][dNMeL][dI]LP[dP]P))
PAMPA_Papp_Avg: BQL
--
compound: CC[C@H](C)[C@@H]1NC(=O)[C@H](C)NC(=O)[C@H](CC(C)C)NC(=O)[C@@H]2CCCN2C(=O)[C@@H](C(C)C)NC(=O)[C@H](CC(C)C)NC(=O)[C@@H]2CCCN2C(=O)[C@H]2CCCN2C(=O)[C@H](C)NC(=O)[C@H](Cc2ccccc2)NC(=O)[C@@H](CC(C)C)NC(=O)[C@H]2CCCN2C1=O [Design D12.8] (cyclo(L[dV]PLAI[dP][dL]FA[dP]P))
PAMPA_Papp_Avg: BQL
